Each item that follows carries a reported self-aminoacylation.
test system: biotinyl-Leu-oxazolone; experiment: self-aminoacylation, catalytic enhancement (BLO) (fold over background); higher = more active; k-Seq, kA / k0A0; sequences stand for … in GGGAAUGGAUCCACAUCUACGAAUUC…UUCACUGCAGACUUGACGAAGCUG
Fewer inactive variants are shown than the library holds.
Value Type: self-aminoacylation

[
  {
    "Residue String": "AGUACACUGGUCAUCGAGUGA [Fam2.1 aminoacylation ribozyme variant]",
    "Test System": "biotinyl-Leu-oxazolone",
    "Value Type": "self-aminoacylation",
    "Measured Value": 4.42
  },
  {
    "Residue String": "AAGUAAGCUAAUAGUCGCAAG [Fam3.1 aminoacylation ribozyme variant]",
    "Test System": "biotinyl-Leu-oxazolone",
    "Value Type": "self-aminoacylation",
    "Measured Value": 1.43
  },
  {
    "Residue String": "AUUCCCAUGGUCAUCGAGUGA [Fam2.1 aminoacylation ribozyme variant]",
    "Test System": "biotinyl-Leu-oxazolone",
    "Value Type": "self-aminoacylation",
    "Measured Value": 11.3
  },
  {
    "Residue String": "AACUAUGCUAAUAGUCGCAAG [Fam3.1 aminoacylation ribozyme variant]",
    "Test System": "biotinyl-Leu-oxazolone",
    "Value Type": "self-aminoacylation",
    "Measured Value": 2.16
  },
  {
    "Residue String": "AUUACACUGGUCAUCCAGUGA [Fam2.1 aminoacylation ribozyme variant]",
    "Test System": "biotinyl-Leu-oxazolone",
    "Value Type": "self-aminoacylation",
    "Measured Value": 3.01
  },
  {
    "Residue String": "AACUUUGCUAAUAUUCGCAAG [Fam3.1 aminoacylation ribozyme variant]",
    "Test System": "biotinyl-Leu-oxazolone",
    "Value Type": "self-aminoacylation",
    "Measured Value": 1.94
  },
  {
    "Residue String": "AUUACCUUGGUGAUCGAGUGA [Fam2.1 aminoacylation ribozyme variant]",
    "Test System": "biotinyl-Leu-oxazolone",
    "Value Type": "self-aminoacylation",
    "Measured Value": 4.39
  },
  {
    "Residue String": "AUUACCCUGGUCACCGAGUGA [Fam2.1 aminoacylation ribozyme variant]",
    "Test System": "biotinyl-Leu-oxazolone",
    "Value Type": "self-aminoacylation",
    "Measured Value": 9.26
  },
  {
    "Residue String": "AUUACCCUAGUCAUCUAGUGA [Fam2.1 aminoacylation ribozyme variant]",
    "Test System": "biotinyl-Leu-oxazolone",
    "Value Type": "self-aminoacylation",
    "Measured Value": 6.97
  }
]

* * *

system: biotinyl-Leu-oxazolone; test: self-aminoacylation, catalytic enhancement (BLO) (fold over background); higher = more active; k-Seq, kA / k0A0; sequences stand for … in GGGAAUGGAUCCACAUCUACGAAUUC…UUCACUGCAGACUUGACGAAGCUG
Variants at the floor of the assay were thinned out.
Returns the class for an entry based on its self-aminoacylation. Class ranges: low interval (below 1), middle interval (1 to below 5), high interval (5 or more)

[
  {
    "Residue String": "AAUCACCUAGGUCAACGGGUG [Fam2.2 aminoacylation ribozyme variant]",
    "Classification": "middle interval"
  },
  {
    "Residue String": "CUACUUGAAACAAUCCGUCUG [Fam1A.1 aminoacylation ribozyme variant]",
    "Classification": "low interval"
  },
  {
    "Residue String": "CCCCACUUCACGCAAUCGGUC [Fam1B.1 aminoacylation ribozyme variant]",
    "Classification": "middle interval"
  },
  {
    "Residue String": "AUUGCCCUGGUCAUCGAGUUA [Fam2.1 aminoacylation ribozyme variant]",
    "Classification": "high interval"
  },
  {
    "Residue String": "AAGUUCCCUAAUAGUCGCAAG [Fam3.1 aminoacylation ribozyme variant]",
    "Classification": "low interval"
  },
  {
    "Residue String": "UUUACCCUGGUCAUCGAGUAA [Fam2.1 aminoacylation ribozyme variant]",
    "Classification": "high interval"
  },
  {
    "Residue String": "CUACUUCAAACAGUCGGUCUU [Fam1A.1 aminoacylation ribozyme variant]",
    "Classification": "middle interval"
  },
  {
    "Residue String": "AAGUUUGCCAAUAGUCACAAG [Fam3.1 aminoacylation ribozyme variant]",
    "Classification": "middle interval"
  },
  {
    "Residue String": "AUUACCCUGGUCACAGAGUGA [Fam2.1 aminoacylation ribozyme variant]",
    "Classification": "high interval"
  },
  {
    "Residue String": "GUACUUCAAACAAUCGGUCUU [Fam1A.1 aminoacylation ribozyme variant]",
    "Classification": "middle interval"
  },
  {
    "Residue String": "AAGUUUGCUAAUAGCCGCGAG [Fam3.1 aminoacylation ribozyme variant]",
    "Classification": "middle interval"
  },
  {
    "Residue String": "CUACUACAAAGAAUCGGUCUG [Fam1A.1 aminoacylation ribozyme variant]",
    "Classification": "low interval"
  },
  {
    "Residue String": "AGUACCCGGGUCAUCGAGUGA [Fam2.1 aminoacylation ribozyme variant]",
    "Classification": "high interval"
  },
  {
    "Residue String": "ACUCACCUAGGGCAUCGGGUG [Fam2.2 aminoacylation ribozyme variant]",
    "Classification": "high interval"
  },
  {
    "Residue String": "AAGUUGGCUAAUCGUCGCAAG [Fam3.1 aminoacylation ribozyme variant]",
    "Classification": "middle interval"
  },
  {
    "Residue String": "AAGUUGGCUAAGAGUCGCAAG [Fam3.1 aminoacylation ribozyme variant]",
    "Classification": "middle interval"
  }
]

* * *

system: biotinyl-Leu-oxazolone; experiment: self-aminoacylation, catalytic enhancement (BLO) (fold over background); higher = more active; k-Seq, kA / k0A0; sequences stand for … in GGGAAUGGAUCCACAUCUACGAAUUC…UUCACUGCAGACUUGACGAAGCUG
Fewer inactive variants are shown than the library holds.
Value Type: self-aminoacylation

[
  {
    "Residue String": "CUACUUCACUCAAUCGGUCUG [Fam1A.1 aminoacylation ribozyme variant]",
    "Value Type": "self-aminoacylation",
    "Measured Value": 0.719
  },
  {
    "Residue String": "AUUACCCUGGUCUUCGGGUGA [Fam2.1 aminoacylation ribozyme variant]",
    "Value Type": "self-aminoacylation",
    "Measured Value": 9.51
  },
  {
    "Residue String": "AUUUACCUAGGUCAUCGGGUA [Fam2.2 aminoacylation ribozyme variant]",
    "Value Type": "self-aminoacylation",
    "Measured Value": 39.9
  },
  {
    "Residue String": "AAGUUUGCUAAGAGACGCAAG [Fam3.1 aminoacylation ribozyme variant]",
    "Value Type": "self-aminoacylation",
    "Measured Value": 0.967
  },
  {
    "Residue String": "CCACACUCCAAGCAAUCAGUC [Fam1B.1 aminoacylation ribozyme variant]",
    "Value Type": "self-aminoacylation",
    "Measured Value": 0.73
  },
  {
    "Residue String": "AUUCACCUAGGUCUUCGGUUG [Fam2.2 aminoacylation ribozyme variant]",
    "Value Type": "self-aminoacylation",
    "Measured Value": 1.75
  },
  {
    "Residue String": "AUUACCCGGGCCAUCGAGUGA [Fam2.1 aminoacylation ribozyme variant]",
    "Value Type": "self-aminoacylation",
    "Measured Value": 10.1
  },
  {
    "Residue String": "CUACUUCAAACAAGCGGCCUG [Fam1A.1 aminoacylation ribozyme variant]",
    "Value Type": "self-aminoacylation",
    "Measured Value": 2.08
  },
  {
    "Residue String": "AUUCCCCUAGGUCAUCGGGGG [Fam2.2 aminoacylation ribozyme variant]",
    "Value Type": "self-aminoacylation",
    "Measured Value": 13.3
  },
  {
    "Residue String": "CCACACUUCAAGCAUGCGGUC [Fam1B.1 aminoacylation ribozyme variant]",
    "Value Type": "self-aminoacylation",
    "Measured Value": 1.62
  },
  {
    "Residue String": "AUUCACAUAGGUCAUCUGGUG [Fam2.2 aminoacylation ribozyme variant]",
    "Value Type": "self-aminoacylation",
    "Measured Value": 3.86
  },
  {
    "Residue String": "CUAUUUCAAACAACCGGUCUG [Fam1A.1 aminoacylation ribozyme variant]",
    "Value Type": "self-aminoacylation",
    "Measured Value": 0.844
  },
  {
    "Residue String": "AGUACCCUGGUCAUCGAUUGA [Fam2.1 aminoacylation ribozyme variant]",
    "Value Type": "self-aminoacylation",
    "Measured Value": 1.07
  },
  {
    "Residue String": "AUCACCCUGGUCAUCGAGUGC [Fam2.1 aminoacylation ribozyme variant]",
    "Value Type": "self-aminoacylation",
    "Measured Value": 2.56
  },
  {
    "Residue String": "AUUAACCUAGGUCACCGGGUG [Fam2.2 aminoacylation ribozyme variant]",
    "Value Type": "self-aminoacylation",
    "Measured Value": 4.52
  },
  {
    "Residue String": "AUUACCUUGUUCAUCGAGUGA [Fam2.1 aminoacylation ribozyme variant]",
    "Value Type": "self-aminoacylation",
    "Measured Value": 6.6
  },
  {
    "Residue String": "CUAAUUCAAACAAUCAGUCUG [Fam1A.1 aminoacylation ribozyme variant]",
    "Value Type": "self-aminoacylation",
    "Measured Value": 0.674
  },
  {
    "Residue String": "AUUACCCUGCUCAUCGCGUGA [Fam2.1 aminoacylation ribozyme variant]",
    "Value Type": "self-aminoacylation",
    "Measured Value": 16.4
  }
]
